- MEASUREMENT NOTES: Inhibition of Baker's yeast Alpha-glucosidase-1 using p-nitrophenyl-alpha-D-glucopyranoside as substrate preincubated for 10 mins prior substrate addition measured after 20 mins by spectrophotometry
- Set-up: species or system Saccharomyces cerevisiae
pIC50: −log10 of the molar value.
MEASUREMENT TYPE: pIC50

[Q] Need pIC50 of "O[C@H]1[C@@H](O)[C@@H](O)[C@@H](O)[C@@H](O)[C@@H]1O" , thanks.
[A] 3.32

a. O[C@@H]1[C@@H](O)[C@@H](O)C=C[C@H]1O
b. O[C@H]1[C@H](O)[C@H](O)[C@@H](O)[C@H](O)[C@H]1O
c. C[C@H]1O[C@H](O[C@H]2[C@H](O)[C@@H](O)[C@@H](O[C@H]3[C@H](O)[C@@H](O)C(O)O[C@@H]3CO)O[C@@H]2CO)[C@H](O)[C@@H](O)[C@@H]1N[C@H]1C=C(CO)[C@@H](O)[C@H](O)[C@H]1O (some centres undefined)
[Q] Hey, quick one: sort these by pIC50, largest value first please. Output spec: a listing of the labels in the requested order.
[A] a, c, b
(a: 4.06, c: 3.39, b: 2.90)

----------
- STUDY SYSTEM: Beta-galactosidase (Homo sapiens, UniProt P16278)
- Sequence (P16278 whole entry): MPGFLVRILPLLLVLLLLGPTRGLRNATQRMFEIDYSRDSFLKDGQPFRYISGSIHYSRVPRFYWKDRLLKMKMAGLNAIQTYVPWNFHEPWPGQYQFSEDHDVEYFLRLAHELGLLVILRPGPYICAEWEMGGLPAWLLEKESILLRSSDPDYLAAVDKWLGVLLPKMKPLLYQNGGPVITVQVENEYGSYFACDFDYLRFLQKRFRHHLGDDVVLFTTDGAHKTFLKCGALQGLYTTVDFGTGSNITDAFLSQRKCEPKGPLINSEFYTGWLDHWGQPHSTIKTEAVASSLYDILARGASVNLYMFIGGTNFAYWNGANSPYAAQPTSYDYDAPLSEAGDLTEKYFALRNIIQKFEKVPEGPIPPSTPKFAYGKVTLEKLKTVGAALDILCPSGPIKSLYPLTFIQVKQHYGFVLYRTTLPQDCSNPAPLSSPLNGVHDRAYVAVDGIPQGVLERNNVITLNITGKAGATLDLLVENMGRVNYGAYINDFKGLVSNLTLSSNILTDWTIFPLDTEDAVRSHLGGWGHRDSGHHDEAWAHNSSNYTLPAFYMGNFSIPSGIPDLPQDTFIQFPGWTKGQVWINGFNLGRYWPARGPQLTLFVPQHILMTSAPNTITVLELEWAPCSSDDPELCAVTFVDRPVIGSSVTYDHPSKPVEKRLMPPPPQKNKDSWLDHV
MEASUREMENT TYPE: IC50 (µM)
Quick reminder: number only, in µM, skip the unit.

[Q] // lookup IC50 for O[C@@H]1[C@@H](O)[C@@H](O)C=C[C@H]1O (relative stereo)
[A] 600
